- Target Under Test: Tyrosine-protein kinase Yes (Homo sapiens) (UniProt P07947)
- Sequence (P07947 whole entry, looked up): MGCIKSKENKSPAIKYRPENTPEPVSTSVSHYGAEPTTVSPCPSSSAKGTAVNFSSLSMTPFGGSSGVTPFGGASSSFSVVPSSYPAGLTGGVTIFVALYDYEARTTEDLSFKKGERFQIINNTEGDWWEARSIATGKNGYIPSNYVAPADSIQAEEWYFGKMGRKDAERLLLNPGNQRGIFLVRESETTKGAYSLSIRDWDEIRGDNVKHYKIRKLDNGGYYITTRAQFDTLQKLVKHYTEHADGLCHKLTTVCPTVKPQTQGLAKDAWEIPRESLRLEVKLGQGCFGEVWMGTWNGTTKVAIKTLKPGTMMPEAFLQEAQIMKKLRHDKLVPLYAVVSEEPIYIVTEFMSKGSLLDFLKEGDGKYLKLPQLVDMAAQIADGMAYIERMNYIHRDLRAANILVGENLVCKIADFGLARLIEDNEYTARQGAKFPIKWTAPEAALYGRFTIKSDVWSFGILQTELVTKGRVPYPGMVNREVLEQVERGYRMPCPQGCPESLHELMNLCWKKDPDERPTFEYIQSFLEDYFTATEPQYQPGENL
- Protocol Text: qHTS for small molecule inhibitors of Yes1 kinase: Primary Screen (AID 686947); note: nearly all actives have a fitted effect of over 60% in size; note: potency is the fitted concentration of half-maximal effect
- Experimental Context: Yes1 kinase biochemical qHTS inhibition; series mostly up to 76.9 µM
Records with an inconclusive call do not appear. Active and inactive are the calls of the source. Calls come from the whole dose curve; as a rule, active = well fitted inhibition curve with a large enough effect; inconclusive = small, poorly fitted or top-dose-only effect; inactive = no such curve, though single readings can be large or run the other way.
Measured Attribute: Potency

In the examples that follow, each entry is paired with its recorded Potency.
| Compound | Potency |
| --- | --- |
| O=C1Nc2ccc(-c3cccnc3)cc2C1=Cc1cc(Br)c(O)c(Br)c1 | 0.412 µM (active) |
| Oc1[nH]c2ccccc2c1C=Nc1ccc(-n2cncn2)cc1 | 9.23 µM (active) |
| COc1cccc(-n2ncc3c(NN=Cc4ccc(F)cc4)ncnc32)c1 | 0.582 µM (active) |
| NC(=O)c1cccc(Nc2nccc(Nc3cccc(F)c3)n2)c1 | 1.16 µM (active) |
| COc1cc2ncnc(Nc3ccc(C)c(O)c3)c2cc1OC | 0.164 µM (active) |
| CCn1c(-c2nonc2N)nc2c(C#CC(C)(C)O)nc(CN3CCCC3)cc21 | 23.2 µM (active) |

Task item: API: value(readout=Potency, system=Tyrosine-protein kinase Yes (Homo sapiens) (UniProt P07947)) for record "CN(C)CCNC(=O)Nc1ccc(N(C)c2ccnc(Nc3ccc(CS(C)(=O)=O)cc3)n2)cc1"
Reply: 7.33 µM (active)

Task item: API: value(readout=Potency, system=Tyrosine-protein kinase Yes (Homo sapiens) (UniProt P07947)) for record "COC(=O)Nc1nc2ccc(Oc3ccc(NC(=O)Nc4ccccc4)cc3)cc2[nH]1"
Reply: inactive

Task item: API: value(readout=Potency, system=Tyrosine-protein kinase Yes (Homo sapiens) (UniProt P07947)) for record "COc1cc2ncn(-c3cc(OCc4ccccc4C(F)(F)F)c(C(=O)N(C)C)s3)c2cc1OC"
Reply: 7.33 µM (active)

Task item: API: value(readout=Potency, system=Tyrosine-protein kinase Yes (Homo sapiens) (UniProt P07947)) for record "FC(F)(F)CNc1nccc(-c2cnn3ncccc23)n1"
Reply: inactive
